Could you please report measured MIC for the items listed next?
# Tested on: up to 32 different microorganisms
# ASSAY TEXT: in vitro antibacterial activity (MIC), agar dilution on Brain Heart Infusion (BHI) agar with Steers replicator
# Type: cell-based
# EXPERIMENTAL CONDITIONS: organism code HH; unit assumed
Number in µg/mL, nothing else.

Problem: Supply recorded MIC for CCC1OC(=O)C(C)C(=O)C(C)C(OC2OC(C)CC(N(C)C)C2O)C(C)(OCC=Cc2ccc(F)c3ccccc23)CC(C)C(=O)C(C)C2NC(=O)OC12C (centres unmarked) here.
Result: 0.39

Problem: Name the recorded MIC of the item CC[C@H]1OC(=O)[C@H](C)C(=O)[C@H](C)[C@@H](O[C@@H]2O[C@H](C)C[C@H](N(C)C)[C@H]2O)[C@@](C)(OCC=NOCc2ccc3ccccc3c2)C[C@@H](C)C(=O)[C@H](C)[C@H]2NC(=O)O[C@@]21C in your answer.
Result: 0.2

Problem: State, in one line, measured MIC of CCC1OC(=O)C(C)C(=O)C(C)C(OC2OC(C)CC(N(C)C)C2O)C(C)(OCc2cccc(I)c2)CC(C)C(=O)C(C)C2NC(=O)OC12C (centres unmarked)
Result: 3.1

Problem: Provide measured MIC value, entry: CCC1OC(=O)C(C)C(=O)C(C)C(OC2OC(C)CC(N(C)C)C2O)C(C)(OCC=Cc2cnc3ccc(N)cc3c2)CC(C)C(=O)C(C)C2NC(=O)OC12C (centres unmarked)
Result: 0.01

Problem: Tell me MIC reported for CCC1OC(=O)C(C)C(=O)C(C)C(OC2OC(C)CC(N(C)C)C2O)C(C)(OCC=Cc2cc3nccnc3cc2[N+](=O)[O-])CC(C)C(=O)C(C)C2NC(=O)OC12C (centres unmarked)
Result: 0.1

Problem: Look up and report measured MIC for this entry: CCC1OC(=O)C(C)C(=O)C(C)C(OC2OC(C)CC(N(C)C)C2O)C(C)(OCC=Cc2cnc3ccc(C#N)cc3c2)CC(C)C(=O)C(C)C2NC(=O)OC12C (centres unmarked)
Result: 0.01

Problem: Give the reported MIC for this molecule. CCC1OC(=O)C(C)C(=O)C(C)C(OC2OC(C)CC(N(C)C)C2O)C(C)(OCC=Cc2cccc3c([N+](=O)[O-])cccc23)CC(C)C(=O)C(C)C2NC(=O)OC12C (centres unmarked)
Result: 0.78

Problem: Complete the entry with MIC for CC[C@H]1OC(=O)[C@H](C)C(=O)[C@H](C)[C@@H](O[C@@H]2O[C@H](C)C[C@H](N(C)C)[C@H]2O)[C@@](C)(OCC=NOCc2cccc3ccccc23)C[C@@H](C)C(=O)[C@H](C)[C@H]2NC(=O)O[C@@]21C
Result: 0.2

Problem: Give me measured MIC, please, for this molecule: CC[C@H]1OC(=O)[C@H](C)C(=O)[C@H](C)[C@@H](O[C@@H]2O[C@H](C)C[C@H](N(C)C)[C@H]2O)[C@@](C)(OCC=NOCc2cnc3ccccc3c2)C[C@@H](C)C(=O)[C@H](C)[C@H]2NC(=O)O[C@@]21C
Result: 0.2

Problem: Given CC[C@H]1OC(=O)[C@H](C)C(=O)[C@H](C)[C@@H](O[C@@H]2O[C@H](C)C[C@H](N(C)C)[C@H]2O)[C@@](C)(OCC=Cc2cnc3ccc(C(=O)O)cc3c2)C[C@@H](C)C(=O)[C@H](C)[C@H]2NC(=O)O[C@@]21C , respond with its MIC.
Result: 25

Problem: Consider the molecule CC[C@H]1OC(=O)[C@H](C)C(=O)[C@H](C)[C@@H](O[C@@H]2O[C@H](C)C[C@H](N(C)C)[C@H]2O)[C@@](C)(OCCNOCc2ccc([N+](=O)[O-])cc2)C[C@@H](C)C(=O)[C@H](C)[C@H]2NC(=O)O[C@@]21C . State its measured MIC.
Result: 0.39

Problem: Quickly give me recorded MIC for CC[C@H]1OC(=O)[C@H](C)C(=O)[C@H](C)[C@@H](O[C@@H]2O[C@H](C)C[C@H](N(C)C)[C@H]2O)[C@@](C)(OCC#Cc2ccc3cc(Cl)ccc3c2)C[C@@H](C)C(=O)[C@H](C)[C@H]2NC(=O)O[C@@]21C
Result: 0.05

Problem: Could you please provide reported MIC for CCC1OC(=O)C(C)C(=O)C(C)C(OC2OC(C)CC(N(C)C)C2O)C(C)(OCC=Cc2ccc3ncc(-c4ccccc4)cc3c2)CC(C)C(=O)C(C)C2NC(=O)OC12C (centres unmarked) ? Thanks!
Result: 0.2

Problem: Report measured MIC; entry is CCC1OC(=O)C(C)C(=O)C(C)C(OC2OC(C)CC(N(C)C)C2O)C(C)(OCC=Cc2ccc3cc(O)ccc3c2)CC(C)C(=O)C(C)C2NC(=O)OC12C (centres unmarked)
Result: 0.1

Problem: Consider the molecule CC[C@H]1OC(=O)[C@H](C)C(=O)[C@H](C)[C@@H](O[C@@H]2O[C@H](C)C[C@H](N(C)C)[C@H]2O)[C@@](C)(OCC=NOCc2ccccc2)C[C@@H](C)C(=O)[C@H](C)[C@H]2NC(=O)O[C@@]21C and give its recorded MIC.
Result: 0.2

Problem: Please indicate MIC recorded for C=C(C#CCO[C@@]1(C)C[C@@H](C)C(=O)[C@H](C)[C@H]2NC(=O)O[C@]2(C)[C@@H](CC)OC(=O)[C@H](C)C(=O)[C@H](C)[C@H]1O[C@@H]1O[C@H](C)C[C@H](N(C)C)[C@H]1O)c1ccccc1
Result: 0.2

Problem: Please report the measured MIC for CC[C@H]1OC(=O)[C@H](C)C(=O)[C@H](C)[C@@H](O[C@@H]2O[C@H](C)C[C@H](N(C)C)[C@H]2O)[C@@](C)(OCC=NNC(=O)c2ccccc2)C[C@@H](C)C(=O)[C@H](C)[C@H]2NC(=O)O[C@@]21C
Result: 6.2

* * *

# Tested on: up to 32 different microorganisms
# ASSAY TEXT: in vitro antibacterial activity (MIC), agar dilution on Brain Heart Infusion (BHI) agar with Steers replicator
# Assay type: cell-based
# EXPERIMENTAL CONDITIONS: Micrococcus luteus ATCC 9341 (code OO); unit assumed
Kindly state MIC for each of the entries shown.
Report the value in µg/mL with no unit label.

Problem: Provide MIC, tested on up to 32 different microorganisms, for CC[C@H]1OC(=O)[C@H](C)C(=O)[C@H](C)[C@@H](O[C@@H]2O[C@H](C)C[C@H](N(C)C)[C@H]2O)[C@@](C)(OCC=Cc2ccccc2)C[C@@H](C)C(=O)[C@H](C)[C@H]2NC(=O)O[C@@]21C [Example 103] .
Result: 0.01

Problem: Given CCCO[C@@]1(C)C[C@@H](C)C(=O)[C@H](C)[C@@H](O)[C@](C)(O)[C@@H](CC)OC(=O)[C@H](C)C(=O)[C@H](C)[C@H]1O[C@@H]1O[C@H](C)C[C@H](N(C)C)[C@H]1O [Example 3] , report its MIC on up to 32 different microorganisms.
Result: 12.5

Problem: Retrieve MIC on up to 32 different microorganisms; query CC[C@H]1OC(=O)[C@H](C)C(=O)[C@H](C)[C@@H](O[C@@H]2O[C@H](C)C[C@H](N(C)C)[C@H]2O)[C@@](C)(OCC=Cc2cnc3ccccc3c2)C[C@@H](C)C(=O)[C@H](C)[C@H]2OC(=O)O[C@@]21C [Example 75]
Result: 0.02

Problem: State the measured MIC (up to 32 different microorganisms) of CCC1OC(=O)C(C)C(=O)C(C)C(OC2OC(C)CC(N(C)C)C2O)C(C)(OCC=Cc2cnc3ccc([N+](=O)[O-])cc3c2)CC(C)C(=O)C(C)C2NC(=O)OC12C (stereo not drawn) [Example 195, R is —CH2CH═CH-(6-nitroquinolyl)]
Result: 0.01

Problem: GET MIC where system = up to 32 different microorganisms and item = CC[C@H]1OC(=O)[C@H](C)C(=O)[C@H](C)[C@@H](O[C@@H]2O[C@H](C)C[C@H](N(C)C)[C@H]2O)[C@@](C)(OCc2ccc3ccccc3c2)C[C@@H](C)C(=O)[C@H](C)[C@@H](O)[C@]1(C)O [Example 173]
Result: 0.78

Problem: // output MIC; input CC[C@H]1OC(=O)[C@H](C)C(=O)[C@H](C)[C@@H](O[C@@H]2O[C@H](C)C[C@H](N(C)C)[C@H]2O)[C@@](C)(OCCNCc2ccncc2)C[C@@H](C)C(=O)[C@H](C)[C@@H](O)[C@]1(C)O [Example 12] ; system up to 32 different microorganisms
Result: 0.39

Problem: Report MIC from up to 32 different microorganisms testing of CCC1OC(=O)C(C)C(=O)C(C)C(OC2OC(C)CC(N(C)C)C2O)C(C)(OCC=Cc2ccc3c(c2)OCCO3)CC(C)C(=O)C(C)C2NC(=O)OC12C (stereo not drawn) [Example 192]
Result: 0.01

Problem: Please respond with reported MIC (system up to 32 different microorganisms) for CCC1OC(=O)C(C)C(=O)C(C)C(OC2OC(C)CC(N(C)C)C2O)C(C)(OCC=Cc2cccc3ncccc23)CC(C)C(=O)C(C)C2NC(=O)OC12C (stereo not drawn) [Example 196, R is —CH2CH═CH-(5-quinolyl)] .
Result: 0.01

meta.source: patent USRE39591E1
